# Protocol: NCI Yeast Anticancer Drug Screen. Data for the bub3 strain (AID 167)
# Conditions used: S. cerevisiae bub3 mutant strain, at 50.0 µM, stronger effect = higher value
Compounds without any hit were thinned out: in the full panel of roughly 79,000, 15% have a hit.
Reported metric: growth inhibition (%)
Report the value in % with no unit label.

Qu. Using known records, supply growth inhibition for O=C(NCCCCCCCCCCNC(=O)C12CC3CC(CC(C3)C1)C2)C12CC3CC(CC(C3)C1)C2
Ans. -2.1

Qu. Using known records, supply growth inhibition for O=C(Cl)C(Cl)(c1ccccc1)c1ccccc1
Ans. 17.1

Qu. Using known records, supply growth inhibition for O=C1c2ccccc2C(=O)N1CC#CCN1C(=O)c2ccccc2C1=O
Ans. -2.65

Qu. Using known records, supply growth inhibition for Cc1nc2ccc(-c3ccccc3)cc2nc1C
Ans. -5.05

Qu. Using known records, supply growth inhibition for CCOC(=O)C1C/C(C)=C(/C)SCCCS1 (stereo unspecified)
Ans. 5.05

Qu. Using known records, supply growth inhibition for CC(C)OP(=O)(OC(C)C)C([CH2][Sn]([CH3])([CH3])[Cl])P(=O)(OC(C)C)OC(C)C
Ans. -2.1

Qu. Using known records, supply growth inhibition for O=C(/C=C/c1ccc(Cl)cc1)c1ccc(Cl)s1
Ans. -16.1

Qu. Using known records, supply growth inhibition for Oc1ccccc1-c1cc(-c2ccccc2)nc(NCCCCCCNc2nc(-c3ccccc3)cc(-c3ccccc3O)n2)n1
Ans. -6.4

Qu. Using known records, supply growth inhibition for COc1ccc(C(=O)c2ccc(OC)cc2)cc1
Ans. 1.6

Qu. Using known records, supply growth inhibition for CCOCCOCCOCc1nc(C#N)c(N)o1
Ans. -30.5

Qu. Using known records, supply growth inhibition for Cc1nc(Br)c([N+](=O)[O-])[nH]1
Ans. -9.75

----------
Consider the following molecules; for each one, report its growth inhibition.
# Protocol: NCI Yeast Anticancer Drug Screen. Data for the mlh1 rad18 strain (AID 175)
# Conditions used: S. cerevisiae mlh1 rad18 strain growth inhibition; at 50.0 µM; stronger effect = higher value
Compounds without any hit were thinned out: in the full panel of roughly 79,000, 15% have a hit.
Report the value in % with no unit label.

Qu. Using known records, supply growth inhibition for CCCCC(=O)CCCC
Ans. 4.35

Qu. Using known records, supply growth inhibition for Cc1ccc(S(=O)(=O)N/N=C2/C(=N/NS(=O)(=O)c3ccc(C)cc3)C3CCC2C3)cc1
Ans. -6.45

Qu. Using known records, supply growth inhibition for CN1c2ccccc2C(=O)NC12CCN(Cc1ccccc1)CC2
Ans. -21.2

Qu. Using known records, supply growth inhibition for Nc1ccc(OCCCc2c(N)nc(N)nc2N)c(Cl)c1
Ans. 98.5

Qu. Using known records, supply growth inhibition for O=C(COc1cc(Cl)c(Cl)cc1Cl)Nc1c(Cl)cc(Cl)cc1Cl
Ans. 22.7

Qu. Using known records, supply growth inhibition for CC1=CCC(C#N)N(C)C1c1ccccc1 (stereo not given)
Ans. 8.85

Qu. Using known records, supply growth inhibition for Cc1ccc2c(c1)C(=O)C1(C2)Cc2ccc(C)cc2C1=O
Ans. -24.9

Qu. Using known records, supply growth inhibition for O=C1Cc2c(-c3ccccc3)cc(-c3ccccc3)nc2-c2ccccc2N1
Ans. 41.2

Qu. Using known records, supply growth inhibition for Nc1cccc(/C=C/c2ccc([N+](=O)[O-])cc2)c1
Ans. 39.5

Qu. Using known records, supply growth inhibition for OC1CCCCC1[n+]1ccccc1 (stereo not given)
Ans. -0.55

Qu. Using known records, supply growth inhibition for COC(=O)C1=C(C)NC(C)=C(C(=O)OC)C1c1ccc(NC(C)=O)cc1
Ans. 10.9

Qu. Using known records, supply growth inhibition for c1ccc2nc3ccccc3cc2c1
Ans. 5.95

Qu. Using known records, supply growth inhibition for O=C1CCC2CCC1C2 (stereo not given)
Ans. -28.3

Qu. Using known records, supply growth inhibition for CCCCNCC(=O)Nc1ccc(C(=O)OC(C)C)cc1
Ans. -1.75

Qu. Using known records, supply growth inhibition for NC(=O)NC(=O)N/N=C/c1ccccc1
Ans. 14.9

Qu. Using known records, supply growth inhibition for COc1ccccc1NC(=O)C(=O)C(c1cnc2ccc([N+](=O)[O-])cc2n1)[N+](=O)[O-] (stereo not given)
Ans. -0.2

Qu. Using known records, supply growth inhibition for Nc1cc(C(=O)O)c2ccccc2c1
Ans. 5.15

Qu. Using known records, supply growth inhibition for O=[N+]([O-])c1ccc(S(=O)(=O)/N=C/c2ccccc2)cc1
Ans. 12.3

Qu. Using known records, supply growth inhibition for Cc1ccc(/C=C2\N=C(N3CCCC(CO)C3)NC2=O)cc1 (stereo not given)
Ans. -44

Qu. Using known records, supply growth inhibition for Cc1ccc2ccccc2c1CC(=O)O
Ans. 39.2

Qu. Using known records, supply growth inhibition for [N-]=[N+]=NC1CCOC(n2cnc3c(N)ncnc32)C1O (stereo not given)
Ans. 1.85

Qu. Using known records, supply growth inhibition for CC(=O)OC1C=CCC2C(=O)C3=C(C(=O)c4ccccc4C3=O)C(=O)C12 (stereo not given)
Ans. 33.2

Qu. Using known records, supply growth inhibition for CCc1c(NCCO)c(C(=O)NCCO)c2nc3ccccc3n2c1NCCO
Ans. 11.8

Qu. Using known records, supply growth inhibition for N#CCCn1c(CCC(=O)Nc2ccc(Cl)cc2Cl)n[nH]c1=S
Ans. 2.45

Qu. Using known records, supply growth inhibition for O=C(CCN1C(=O)c2ccccc2C1=O)c1cnc(N2C(=O)c3ccccc3C2=O)[nH]1
Ans. 2.5

Qu. Using known records, supply growth inhibition for CNC(=S)c1ccc(Cl)cc1
Ans. 11.3

Qu. Using known records, supply growth inhibition for CCN1CCC(O)(C(C(=O)O)c2ccccc2)CC1 (stereo not given)
Ans. 2.4

Qu. Using known records, supply growth inhibition for OC1c2c(ccc3ccccc23)CCC1N1CCCCC1 (stereo not given)
Ans. -5

Qu. Using known records, supply growth inhibition for COc1ccc(C2CC(=O)C(C(=O)OC3CCCCC3)C2c2ccc(OC)cc2)cc1 (stereo not given)
Ans. 19.5

Qu. Using known records, supply growth inhibition for CC(=O)OC/C=C1/CC[C@H]2[C@@H]3CCC4=CC(=O)CC[C@]4(C)[C@H]3[C@@H](O)C[C@]12C
Ans. 26.9

Qu. Using known records, supply growth inhibition for CC(=O)NC1C(O)C(O)C(CO)OC1n1nc(SCc2ccccc2)c(=O)[nH]c1=O (stereo not given)
Ans. -36.5

Qu. Using known records, supply growth inhibition for C[N+](C)(C)/C=C/c1ccccc1
Ans. 38.9

Qu. Using known records, supply growth inhibition for CCOC(=O)C(=O)Cc1cnccn1
Ans. -2.65

Qu. Using known records, supply growth inhibition for CCCCC1C(=O)N=C2C=CC=CN2C1=O (stereo not given)
Ans. -7.4

Qu. Using known records, supply growth inhibition for Nc1ccnc2cc(Cl)ccc12
Ans. 26.6

Qu. Using known records, supply growth inhibition for c1ccc(Cc2ccc3ccccc3c2)cc1
Ans. 50.2

Qu. Using known records, supply growth inhibition for CCOC(=O)c1ccc(NC(=O)Oc2ccc(C=O)cc2OC)cc1
Ans. 7.2

Qu. Using known records, supply growth inhibition for O=C(O)CSc1n[nH]c(-c2ccccc2)n1
Ans. -9.35

Qu. Using known records, supply growth inhibition for N#Cc1ccc(OCCCCCOc2ccc([N+](=O)[O-])cc2)cc1
Ans. 4.4

Qu. Using known records, supply growth inhibition for Cc1cc[n+](CC(=O)c2ccc(Br)cc2)cc1
Ans. 54.5

Qu. Using known records, supply growth inhibition for C=CCNC(=S)/N=C/C(C(=O)Nc1ccccc1)=C(/C)O
Ans. -20.6

Qu. Using known records, supply growth inhibition for O=C1C=CC(=Nc2ccc3c(c2)C(=O)c2cc(F)ccc2-3)O1
Ans. 5.3

Qu. Using known records, supply growth inhibition for O=C(Nc1ccccc1)C1C2C=CC(C2)C1C(=O)Nc1ccccc1 (stereo not given)
Ans. -8.25

Qu. Using known records, supply growth inhibition for CCNc1nc2c(N)ncnc2n1C1OC(CO)C(O)C1O (stereo not given)
Ans. -6.6

Qu. Using known records, supply growth inhibition for N#CC1(c2ccc(Cl)cc2)CCC1
Ans. 8.6

Qu. Using known records, supply growth inhibition for COc1ccc(NC=O)c(C)c1
Ans. -29

Qu. Using known records, supply growth inhibition for CCCc1c(OC(=O)c2ccc([N+](=O)[O-])cc2)cccc1OC(=O)c1ccc([N+](=O)[O-])cc1
Ans. 7.55

Qu. Using known records, supply growth inhibition for COC(=O)c1ccc(/C=C2\N=C(C)OC2=O)cc1
Ans. -17.9

Qu. Using known records, supply growth inhibition for Cc1ccc(S(=O)c2cccs2)cc1 (stereo not given)
Ans. -28.8

Qu. Using known records, supply growth inhibition for CCCCCP(=O)(CCC(C)C)CC(C)C (stereo not given)
Ans. -6.6
